Assay: Structural integrity of P/CAF bromodomain mutants by 15N-HSQC spectra
Type: physicochemical
Set-up: key: ++++: as stable as the wild-type; +++: mildly destabilized; ++: moderately destabilized; −: completely unfolded
Details: relative to wild-type
Measurement Type: Structural Integrity

Check out these entries, answers already filled in.
Molecule	Structural Integrity
Tyr760Ala: P/CAF bromodomain point mutant, Tyr760 to Ala (protein) SKEPRDPDQLYSTLKSILQQVKSHQSAWPFMEPVKRTEAPGAYEVIRFPMDLKTMSERLKNRYYVSKKLFMADLQRVFTNCKEYNAAESEYYKCANILEKFFFSKIKEAGLIDK	+++
Tyr802Ala: P/CAF bromodomain point mutant, Tyr802 to Ala (protein) SKEPRDPDQLYSTLKSILQQVKSHQSAWPFMEPVKRTEAPGYYEVIRFPMDLKTMSERLKNRYYVSKKLFMADLQRVFTNCKEANAAESEYYKCANILEKFFFSKIKEAGLIDK	+++
Val752Ala (protein) SKEPRDPDQLYSTLKSILQQVKSHQSAWPFMEPAKRTEAPGYYEVIRFPMDLKTMSERLKNRYYVSKKLFMADLQRVFTNCKEYNAAESEYYKCANILEKFFFSKIKEAGLIDK	++
Tyr809Ala: P/CAF bromodomain point mutant, Tyr809 to Ala (protein) SKEPRDPDQLYSTLKSILQQVKSHQSAWPFMEPVKRTEAPGYYEVIRFPMDLKTMSERLKNRYYVSKKLFMADLQRVFTNCKEYNAAESEAYKCANILEKFFFSKIKEAGLIDK	++++

Shift focus to the following entry.
### Prompt Which measured Structural Integrity value corresponds to Wild-Type: wild-type bromodomain of P/CAF (residues 719-832 of SEQ ID NO:2) (protein, listed as Homo sapiens) SKEPRDPDQLYSTLKSILQQVKSHQSAWPFMEPVKRTEAPGYYEVIRFPMDLKTMSERLKNRYYVSKKLFMADLQRVFTNCKEYNAAESEYYKCANILEKFFFSKIKEAGLIDK ?
### Response ++++

Sourced from patent US7589167B2
